Collected GI50 values appear next to each entry.
Test system: T47D
Assay: Growth inhibition of human T47D cells after 48 hrs
Type: functional
Put down the number, then write its unit next to it.

Please review the following examples before continuing.
O=C(Nc1ccccc1Cl)c1cccc2c1C(=O)c1ccccc1-2
230 nM
COC(=O)c1ccccc1NC(=O)c1cccc2c1C(=O)c1ccccc1-2
180 nM
O=C(Nc1ccccc1-n1cccn1)c1cccc2c1C(=O)c1ccccc1-2
160 nM
CCOc1ccccc1NC(=O)c1cccc2c1C(=O)c1ccccc1-2
450 nM
O=C(Nc1ccccc1-c1ccccc1)c1cccc2c1C(=O)c1ccccc1-2
210 nM

Pending compound:
The compound identified as `Cc1ccccc1NC(=O)c1cccc2c1C(=O)c1ccccc1-2` registered its GI50 at 180 nM

---

System: SNU-398
Test: Growth inhibition of human SNU398 cells after 48 hrs
Type: functional
Settings: SNU-398, 48 h
Collected GI50 values appear next to each entry.
Numeric answer only, unit nM assumed.

Please review the following examples before continuing.
O=C(Nc1ccccc1-c1ccccc1)c1cccc2c1C(=O)c1ccccc1-2
350
O=C(Nc1ccccc1-n1cccn1)c1cccc2c1C(=O)c1ccccc1-2
780
CCOc1ccccc1NC(=O)c1cccc2c1C(=O)c1ccccc1-2
270
O=C(Nc1ccccc1Cl)c1cccc2c1C(=O)c1ccccc1-2
530
Cc1ccccc1NC(=O)c1cccc2c1C(=O)c1ccccc1-2
300

The molecule identified as `COC(=O)c1ccccc1NC(=O)c1cccc2c1C(=O)c1ccccc1-2` registered its GI50 at 310

Data origin, for the record: ChEMBL document CHEMBL1136880
